# Measurement notes: CREB reporter modulators without forskolin, primary screen, cell-based, PC12, CRE-LacZ reporter, unstimulated (AID 1145)
# Condition parameters: no forskolin, luminescence, 4.5 h, higher = more signal, called active from +8 up or from −8 down
Given measured z-score, output label 1 if it is greater than or equal to -0.07 and label 0 if not.

Here are 5 compounds together with their reported answers.
{"columns": ["Compound", "Label value"],
 "data": [
  ["CCOC(=O)[C@H]1C/C=C/C[C@H](C(=O)OCC)C(=O)O[C@H]2[C@@H](OC)O[C@H](CO)[C@@H](OC(=O)CCc3ccccc3)[C@@H]2OC1=O", "label 0"],
  ["COc1cc2c(cc1OC)CN(C(=O)[C@@H]1[C@H]3C(=O)O[C@H](c4ccccc4)[C@H](c4ccccc4)N3[C@H](c3ccccc3OCCO)[C@@]13C(=O)Nc1ccc(C#CC4(O)CCCCCC4)cc13)CC2", "label 0"],
  ["CCOC(=O)C[C@H]1[C@H](OC(=O)c2ccc(-c3ccccc3)cc2)[C@@H](NC(=O)c2ccc3ccccc3c2)c2cc(OCCCO)ccc2N1C(=O)c1ccc2ccccc2n1", "label 0"],
  ["O=C1OCCC=C[C@H]2OC34C=CCN(c5ccc(Cl)cc5)C(=O)[C@H]3N(CCCCCO)C(=O)[C@@H]4C12 (some centres not stated)", "label 1"],
  ["COc1c(C)cc(-c2cc3c(c(-c4ccccc4)n2)[Si](C(C)C)(C(C)C)OC3)cc1C", "label 0"]
]}

Does z-score meet or surpass -0.07 for CC(C)CCC[C@@H](C)[C@H]1CC[C@@]2(C)C3=C(CC[C@]12C)[C@@]1(C)CC[C@H](OC(=O)c2ccc(Br)cc2)C(C)(C)C1CC3 (some centres not stated) ?
label 1

Same for O=C1O[C@@H](c2ccccc2)[C@@H](c2ccccc2)N2[C@@H](c3ccccc3OCCO)[C@]3(C(=O)Nc4ccc(C#CCCO)cc43)[C@@H](C(=O)N3CCN(c4ncccn4)CC3)[C@H]12
label 1

Same for CCOC(=O)C[C@H]1[C@H](OC(=O)c2ccc(C(=O)c3ccccc3)cc2)[C@@H](NC(=O)c2ccc3ccccc3c2)c2cc(OCCCO)ccc2N1C(=O)c1ccccc1
label 1

Same for CCCNC(=O)[C@@]1(c2ccc([N+](=O)[O-])cc2)CC(=O)N(C2CCCCC2)[C@@H]1c1ccc(CO)cc1I
label 0

Same for COCCOC(=O)N1C(=O)[C@@]2(c3cc(C#CCNC(N)=O)ccc31)[C@H](C(=O)N1CCCCCCC1)[C@H]1C(=O)O[C@H](c3ccccc3)[C@H](c3ccccc3)N1[C@@H]2c1ccc(O)cc1
label 1

Same for C=CC1c2cc(O)c(OC)cc2CCN1Cc1sc2ccccc2c1Cl (configuration not stated)
label 0

Same for C[N+](C)(C)CCCC[C@@H]1NC(=O)[C@@H]2C[C@H](C(=O)O)[C@H](c3ccc(O)cc3)N2C1=O
label 1

Same for COCCCNC(=O)[C@@H]1c2ccccc2C(=O)N(Cc2ccccc2C(F)(F)F)[C@H]1c1ccc(CO)cc1
label 0

Same for C[C@]1(C(=O)NCCN2CCOCC2)c2ccccc2C(=O)N(Cc2ccc(OC(F)(F)F)cc2)[C@H]1c1ccc(CO)cc1
label 0

Same for COCCCNC(=O)[C@]1(Cc2ccccc2CN=[N+]=[N-])N=C(c2ccc(OCCCO)cc2)O[C@@H]1c1ccccc1
label 1

Same for O=C1O[C@@H](c2ccccc2)[C@@H](c2ccccc2)N2[C@@H](c3ccccc3OCCO)[C@]3(C(=O)Nc4ccc(C#CC5=CCCCC5)cc43)[C@@H](C(=O)NC[C@H](O)c3ccccc3)[C@H]12
label 0

Same for COc1ccc(CCNC(=O)[C@@]2(Sc3ccc(C)cc3)CC(=O)N(Cc3cc(C(F)(F)F)cc(C(F)(F)F)c3)[C@@H]2c2ccc(CO)cc2I)cc1
label 0

Same for CC(C)c1ccc(NN2C(C(O)c3ccco3)C=CC3C(=O)N(c4ccccc4)C(=O)C32)cc1 (configuration not stated)
label 1

Same for COc1cc2c(cc1OC)CN(C(=O)[C@H]1[C@@H]3C(=O)O[C@@H](c4ccccc4)[C@@H](c4ccccc4)N3[C@@H](c3ccc(OCCO)cc3)[C@]13C(=O)Nc1ccc(C#CC4(O)CCCCCC4)cc13)CC2
label 0

Same for O=c1cccc(-c2cccc(Cl)c2)o1
label 1

Same for COC(=O)[C@@]1(Cc2ccc(OC)cc2)[C@H]2c3cc(C(=O)N(C)C)n(CCc4c[nH]c5ccc(O)cc45)c3C[C@H]2CN1C(=O)c1ccccc1
label 1

Same for O=C(O)[C@]1(Cc2ccccc2)N=C(c2ccc(OCCCO)cc2)O[C@@H]1c1ccccc1
label 0
